Molecular target: Carnitine O-palmitoyltransferase 2, mitochondrial (Rattus norvegicus)
Sequence (P18886 whole entry): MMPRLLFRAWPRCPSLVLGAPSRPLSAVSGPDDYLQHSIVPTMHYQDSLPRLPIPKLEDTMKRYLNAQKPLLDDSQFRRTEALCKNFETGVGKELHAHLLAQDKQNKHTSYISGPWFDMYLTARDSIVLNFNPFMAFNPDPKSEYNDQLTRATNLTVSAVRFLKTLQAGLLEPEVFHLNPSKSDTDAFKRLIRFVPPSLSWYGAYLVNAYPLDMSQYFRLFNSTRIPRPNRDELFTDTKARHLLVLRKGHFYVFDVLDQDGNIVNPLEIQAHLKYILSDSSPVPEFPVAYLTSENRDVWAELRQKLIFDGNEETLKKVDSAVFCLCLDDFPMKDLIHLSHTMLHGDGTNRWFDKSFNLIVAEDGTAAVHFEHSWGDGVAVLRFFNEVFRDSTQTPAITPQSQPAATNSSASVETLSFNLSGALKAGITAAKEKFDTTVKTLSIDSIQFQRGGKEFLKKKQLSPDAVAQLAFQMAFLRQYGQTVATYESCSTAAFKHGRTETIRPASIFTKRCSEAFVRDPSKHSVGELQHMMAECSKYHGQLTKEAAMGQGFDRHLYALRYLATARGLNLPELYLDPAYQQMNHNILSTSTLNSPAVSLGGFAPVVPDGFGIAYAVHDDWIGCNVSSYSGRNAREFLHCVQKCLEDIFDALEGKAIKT
Measure name: IC50

>>> result("O=C(COc1ccccc1)N1CCCC[C@@H]1c1noc(-c2cccc(-n3cc[nH]c3=O)c2)n1")
"69.7 µM"
>>> result("O=C(COc1ccccc1)N1CCCC[C@@H]1c1noc(-c2cc(Cl)nnc2O)n1")
"> 100 µM"
>>> result("NS(=O)(=O)c1cccc(-c2noc([C@H]3CCCCN3C(=O)COc3ccccc3)n2)c1")
"57.9 µM"
>>> result("COc1ccc(-c2nc([C@H]3CCCCN3C(=O)COc3ccccc3)cs2)cn1")
"> 100 µM"
>>> result("O=C(O)c1cccc(-c2csc([C@H]3CCCCN3C(=O)COc3ccccc3)n2)c1")
"78.6 µM"
>>> result("CC(=O)Nc1cccc(C#C[C@H]2CCCCN2C(=O)COc2ccccc2)c1")
"> 100 µM"
>>> result("COc1ccc(Cl)cc1Cn1cc(C(=O)O)c2ccc(C(=O)Nc3ccccc3)cc21")
"> 100 µM"
>>> result("COc1ccc(Cl)cc1S(=O)(=O)N1CCc2c(C)cc(C(=O)Nc3ccc(CC(=O)O)cc3)cc21")
"> 100 µM"
>>> result("COc1ccc(Cl)cc1CN1C(=O)C2(CC2)c2ccc(C(=O)Nc3nc(CC(=O)O)cs3)cc21")
"> 100 µM"
>>> result("Cc1cc(C)cc(S(=O)(=O)c2nn(C)c3ccc(C(=O)Nc4ccc(C(=O)O)cc4)cc23)c1")
"10 µM"
>>> result("CCc1ccc(CCOc2ccc(CC3SC(=O)NC3=O)cc2)nc1 (centres undefined)")
"> 100 µM"
>>> result("O=C(COc1ccccc1)N1CCCC[C@@H]1c1noc(-c2cccc(N3CCCS3(=O)=O)c2)n1")
"> 100 µM"
>>> result("COc1ccc(Cl)cc1S(=O)(=O)N1CCOc2ccc(C(=O)Nc3ccc(C(=O)O)c(Cl)c3)cc21")
"21 µM"
>>> result("O=C(O)c1cccc(-c2csc([C@H]3CCCCN3C(=O)COc3ccccc3)n2)n1")
"99.1 µM"
>>> result("NC(=O)c1ccc(-c2noc([C@H]3CCCCN3C(=O)COc3ccccc3)n2)cc1")
"37.7 µM"
>>> result("O=C(NCc1ccc(-c2nnn[nH]2)cc1)c1nn(Cc2ccc(OC(F)F)cc2)c2ccc(F)cc12")
"> 100 µM"
>>> result("COc1ccc(Cl)cc1S(=O)(=O)N1COc2c(C)cc(C(=O)Nc3nc(CC(=O)O)cs3)cc21")
"> 100 µM"
>>> result("COc1ccc(Cl)cc1S(=O)(=O)N(CCC(=O)O)c1cc(C(=O)Nc2ccccc2)cc2c1OCO2")
"> 100 µM"
>>> result("NC(=O)COc1cccc(-c2noc([C@H]3CCCCN3C(=O)COc3ccccc3)n2)c1")
"> 100 µM"

All figures here come from ChEMBL document CHEMBL3431459.
